measurement_target: α-glucosidase (Saccharomyces cerevisiae, UniProt P53341)
Construct: purchased Sigma-Aldrich Co. (St. Louis, MI, USA)
Sequence (P53341 whole entry): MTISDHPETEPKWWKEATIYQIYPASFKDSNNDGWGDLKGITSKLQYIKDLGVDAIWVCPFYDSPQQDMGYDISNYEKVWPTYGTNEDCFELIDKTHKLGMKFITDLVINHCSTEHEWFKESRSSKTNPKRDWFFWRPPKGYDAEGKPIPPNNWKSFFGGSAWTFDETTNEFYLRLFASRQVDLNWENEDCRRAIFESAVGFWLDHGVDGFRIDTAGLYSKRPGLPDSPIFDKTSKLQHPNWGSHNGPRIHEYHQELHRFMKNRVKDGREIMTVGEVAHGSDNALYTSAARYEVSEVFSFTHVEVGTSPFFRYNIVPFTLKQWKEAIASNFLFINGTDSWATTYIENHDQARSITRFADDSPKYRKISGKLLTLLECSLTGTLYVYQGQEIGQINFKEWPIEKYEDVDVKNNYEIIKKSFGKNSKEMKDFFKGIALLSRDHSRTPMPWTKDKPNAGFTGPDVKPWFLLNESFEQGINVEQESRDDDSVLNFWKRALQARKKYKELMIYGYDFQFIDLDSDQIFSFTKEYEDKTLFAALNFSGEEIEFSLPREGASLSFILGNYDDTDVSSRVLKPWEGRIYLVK
assay_details: biochemical
Type: biochemical
measure_name: Type of inhibition

Request: Give Type of inhibition for the following compound: O=C1Nc2ccc(Br)cc2/C1=C\c1nc2ccccc2c(=O)n1-c1ccc(C(=O)O)cc1
Result: Competitive

Request: Specify measured Type of inhibition for C[C@H]1O[C@H](O[C@H]2[C@H](O)[C@@H](O)[C@@H](O[C@H]3[C@H](O)[C@@H](O)C(O)O[C@@H]3CO)O[C@@H]2CO)[C@H](O)[C@@H](O)[C@@H]1N[C@H]1C=C(CO)[C@@H](O)[C@H](O)[C@H]1O (stereo partly shown) [Acarbose, acarbose, reference compound] .
Result: Mixed

Request: Supply recorded Type of inhibition for COc1ccc(-c2nn(-c3ccccc3)c(C)c2-c2cc(C#N)c(C#N)cc2O)cc1 here.
Result: Competitive

Request: Note down Type of inhibition recorded for O=[N+]([O-])c1ccccc1C1Oc2ccccc2C2CC(c3ccccc3)=NN21 (stereo not shown)
Result: Competitive

* * *

measurement_target: α-amylase (Sus scrofa)
Construct: α-amylase isolated from porcine pancreas
Sequence (P00690 16-511): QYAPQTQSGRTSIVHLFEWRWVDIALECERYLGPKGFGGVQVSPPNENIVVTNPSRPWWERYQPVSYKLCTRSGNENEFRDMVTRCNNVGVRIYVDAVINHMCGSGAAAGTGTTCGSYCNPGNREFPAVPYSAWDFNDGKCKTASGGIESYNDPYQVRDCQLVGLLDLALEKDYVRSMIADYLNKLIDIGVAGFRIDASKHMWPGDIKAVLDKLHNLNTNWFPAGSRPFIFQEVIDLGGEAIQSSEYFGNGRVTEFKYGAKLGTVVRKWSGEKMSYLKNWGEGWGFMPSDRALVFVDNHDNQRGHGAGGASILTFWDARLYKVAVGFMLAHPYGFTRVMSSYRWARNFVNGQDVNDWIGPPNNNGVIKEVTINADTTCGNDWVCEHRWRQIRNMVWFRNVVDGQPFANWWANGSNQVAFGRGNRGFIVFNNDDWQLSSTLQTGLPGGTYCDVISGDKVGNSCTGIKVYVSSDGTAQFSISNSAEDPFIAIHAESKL
assay_details: In vitro α-amylase activity assay (G3-CNP, absorbance 405 nm)
pIC50: −log10 of the molar value.
measure_name: pIC50

Request: Fetch value of pIC50 on α-amylase (Sus scrofa) for COc1ccc(-c2nn(-c3ccccc3)c(C)c2-c2cc(C#N)c(C#N)cc2O)cc1 .
Result: < 3.30

---
Request: Write pIC50 of O=C1Nc2ccc(Br)cc2/C1=C\c1nc2ccccc2c(=O)n1-c1ccc(C(=O)O)cc1 ; system used: α-amylase (Sus scrofa)
Result: < 3.30

Request: Write down measured pIC50 (α-amylase (Sus scrofa)) for this compound. O=[N+]([O-])c1ccccc1C1Oc2ccccc2C2CC(c3ccccc3)=NN21 (stereo not drawn)
Result: < 3.30

* * *

measurement_target: α-glucosidase (Saccharomyces cerevisiae, UniProt P53341)
Construct: purchased Sigma-Aldrich Co. (St. Louis, MI, USA)
assay_details: Fluorescence quenching experiment (Stern-Volmer)
Assay type: binding
experimental_context: T 305.15 K; given as number×10 with exponent 12
measure_name: Kq (bimolecular quenching constant)

In the examples that follow, each entry is paired with its recorded Kq (bimolecular quenching constant).
Request: Please list Kq (bimolecular quenching constant) recorded for the compound C[C@H]1O[C@H](O[C@H]2[C@H](O)[C@@H](O)[C@@H](O[C@H]3[C@H](O)[C@@H](O)C(O)O[C@@H]3CO)O[C@@H]2CO)[C@H](O)[C@@H](O)[C@@H]1N[C@H]1C=C(CO)[C@@H](O)[C@H](O)[C@H]1O (stereo partly shown) [Acarbose, acarbose, reference compound]
Result: 0.02 ×10^12 (M·S)-1

Request: Assign Kq (bimolecular quenching constant) to the following record: O=[N+]([O-])c1ccccc1C1Oc2ccccc2C2CC(c3ccccc3)=NN21 (stereo not shown)
Result: 7.67 ×10^12 (M·S)-1

Request: # return recorded Kq (bimolecular quenching constant) for input COc1ccc(-c2nn(-c3ccccc3)c(C)c2-c2cc(C#N)c(C#N)cc2O)cc1
Result: 0.42 ×10^12 (M·S)-1

Others:
Request: Supply measured Kq (bimolecular quenching constant) of O=C1Nc2ccc(Br)cc2/C1=C\c1nc2ccccc2c(=O)n1-c1ccc(C(=O)O)cc1 in your reply.
Result: 7.99 ×10^12 (M·S)-1

* * *

Documented Ksv (quenching constant) across a set of compounds
measurement_target: α-glucosidase (Saccharomyces cerevisiae)
Construct: purchased Sigma-Aldrich Co. (St. Louis, MI, USA)
assay_details: Fluorescence quenching experiment (Stern-Volmer)
Format: binding
experimental_context: T 300.15 K

Use these answered entries as a reference point.
Request: Specify reported Ksv (quenching constant) for the compound shown: O=C1Nc2ccc(Br)cc2/C1=C\c1nc2ccccc2c(=O)n1-c1ccc(C(=O)O)cc1
Result: 11.46 ±0.01 104 /M

Request: Provide Ksv (quenching constant) value for the following compound: C[C@H]1O[C@H](O[C@H]2[C@H](O)[C@@H](O)[C@@H](O[C@H]3[C@H](O)[C@@H](O)C(O)O[C@@H]3CO)O[C@@H]2CO)[C@H](O)[C@@H](O)[C@@H]1N[C@H]1C=C(CO)[C@@H](O)[C@H](O)[C@H]1O (stereo partly shown) [Acarbose, acarbose, reference compound]
Result: 0.01 ±0.01 104 /M

Request: Answer with the recorded Ksv (quenching constant) of COc1ccc(-c2nn(-c3ccccc3)c(C)c2-c2cc(C#N)c(C#N)cc2O)cc1 only.
Result: 0.59 ±0.02 104 /M

***
Request: Item O=[N+]([O-])c1ccccc1C1Oc2ccccc2C2CC(c3ccccc3)=NN21 (stereo not shown) : provide Ksv (quenching constant)
Result: 10.50 ±0.01 104 /M

* * *

measurement_target: α-glucosidase (Saccharomyces cerevisiae)
Construct: purchased Sigma-Aldrich Co. (St. Louis, MI, USA)
assay_details: Fluorescence quenching experiment (Stern-Volmer)
Type: binding
experimental_context: T 300.15 K
measure_name: n (number of binding sites)

Request: Supply recorded n (number of binding sites) for COc1ccc(-c2nn(-c3ccccc3)c(C)c2-c2cc(C#N)c(C#N)cc2O)cc1 [K802] here.
Result: 1.16

Request: Look up and report measured n (number of binding sites) for this entry: O=[N+]([O-])c1ccccc1C1Oc2ccccc2C2CC(c3ccccc3)=NN21 (stereo not shown) [K411]
Result: 1.15

Request: Read off the recorded n (number of binding sites) for C[C@H]1O[C@H](O[C@H]2[C@H](O)[C@@H](O)[C@@H](O[C@H]3[C@H](O)[C@@H](O)C(O)O[C@@H]3CO)O[C@@H]2CO)[C@H](O)[C@@H](O)[C@@H]1N[C@H]1C=C(CO)[C@@H](O)[C@H](O)[C@H]1O (stereo partly shown) [Acarbose, acarbose, reference compound]
Result: 1.04

Request: For the molecule O=C1Nc2ccc(Br)cc2/C1=C\c1nc2ccccc2c(=O)n1-c1ccc(C(=O)O)cc1 [K413] , report n (number of binding sites).
Result: 1.17

* * *

measurement_target: α-glucosidase (Saccharomyces cerevisiae, UniProt P53341)
Construct: purchased Sigma-Aldrich Co. (St. Louis, MI, USA)
assay_details: Fluorescence quenching experiment (Stern-Volmer)
Format: binding
experimental_context: T 305.15 K
This listing pairs compounds with measured Ksv (quenching constant).

# annotated cases, reported Ksv (quenching constant) shown
Request: Fill in reported Ksv (quenching constant) for this entry: COc1ccc(-c2nn(-c3ccccc3)c(C)c2-c2cc(C#N)c(C#N)cc2O)cc1 [K802]
Result: 0.42 ±0.04 104 /M

Request: State its Ksv (quenching constant): O=C1Nc2ccc(Br)cc2/C1=C\c1nc2ccccc2c(=O)n1-c1ccc(C(=O)O)cc1 [K413]
Result: 7.99 ±0.01 104 /M

Request: Fill in reported Ksv (quenching constant) for this entry: C[C@H]1O[C@H](O[C@H]2[C@H](O)[C@@H](O)[C@@H](O[C@H]3[C@H](O)[C@@H](O)C(O)O[C@@H]3CO)O[C@@H]2CO)[C@H](O)[C@@H](O)[C@@H]1N[C@H]1C=C(CO)[C@@H](O)[C@H](O)[C@H]1O (stereo partly shown) [Acarbose, acarbose, reference compound]
Result: 0.02 ±0.01 104 /M

Proceeding to the next compound to report its Ksv (quenching constant).
Request: Specify measured Ksv (quenching constant) for O=[N+]([O-])c1ccccc1C1Oc2ccccc2C2CC(c3ccccc3)=NN21 (stereo not shown) [K411] .
Result: 7.67 ±0.01 104 /M

* * *

measurement_target: α-glucosidase (Saccharomyces cerevisiae, UniProt P53341)
Construct: purchased Sigma-Aldrich Co. (St. Louis, MI, USA)
assay_details: Fluorescence quenching experiment (Stern-Volmer)
Type: binding
experimental_context: Ka (binding constant), T 305.15 K
measure_name: Kd (µM)

[I] O=[N+]([O-])c1ccccc1C1Oc2ccccc2C2CC(c3ccccc3)=NN21 (stereo not drawn)
[II] COc1ccc(-c2nn(-c3ccccc3)c(C)c2-c2cc(C#N)c(C#N)cc2O)cc1
Request: Of I and II , which shows the smaller Kd value? Respond using the label that marks the chosen record.
Result: I

* * *

measurement_target: α-glucosidase (Saccharomyces cerevisiae, UniProt P53341)
Construct: purchased Sigma-Aldrich Co. (St. Louis, MI, USA)
assay_details: Synchronous fluorescence spectroscopy (RSQF)
Format: binding
Method: Changes in the microenvironment of tyrosine (Tyr) and tryptophan (Trp) residue fluorophores were detected simultaneously. The excitation and emission wavelength intervals were set to 15 nm and 60 nm, respectively, and the synchronized fluorescence spectra from 260 to 320 nm were determined. The synchronized fluorescence burst ratio (RSFQ) was calculated as follows:(7) RSQF=1−F/F0
measure_name: RSQF values, Trp (Δλ = 60 nm) versus Tyr (Δλ = 15 nm)

Request: Determine its reported RSQF values, Trp (Δλ = 60 nm) versus Tyr (Δλ = 15 nm): COc1ccc(-c2nn(-c3ccccc3)c(C)c2-c2cc(C#N)c(C#N)cc2O)cc1 [K802]
Result: significantly higher

Request: Given O=C1Nc2ccc(Br)cc2/C1=C\c1nc2ccccc2c(=O)n1-c1ccc(C(=O)O)cc1 [K413] , respond with its RSQF values, Trp (Δλ = 60 nm) versus Tyr (Δλ = 15 nm).
Result: significantly higher

Request: Hello, please tell me recorded RSQF values, Trp (Δλ = 60 nm) versus Tyr (Δλ = 15 nm) for this one: O=[N+]([O-])c1ccccc1C1Oc2ccccc2C2CC(c3ccccc3)=NN21 (stereo not shown) [K411]
Result: significantly higher
